# Target Or System: T1, human sclerostin (human)
# T1 chain: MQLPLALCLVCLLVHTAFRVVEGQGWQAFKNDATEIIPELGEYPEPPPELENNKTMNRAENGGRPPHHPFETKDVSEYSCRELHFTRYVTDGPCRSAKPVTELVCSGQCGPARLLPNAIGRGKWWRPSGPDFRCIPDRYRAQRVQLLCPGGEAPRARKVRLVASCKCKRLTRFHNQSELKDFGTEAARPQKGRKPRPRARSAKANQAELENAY
# Assay Text: SPR, pH 7.4
Assay Endpoint: koff (s⁻¹)
Give your result in s⁻¹ as a bare value.

[ask] Need koff, item bsH656/abL152 (antibody, V domains shown) VH: QVQLVQSGAEVKKPGASVKVSCKVSGYTLTHTFMHWVRQAPGKGLEWMGWSDPEIGDTEYASKFQGRVTMTEDTSTDTAYMELSSLRSEDTAVYYCATGDTTYKFDYWGQGTLVTVSS VL: DIQMTQSPSSLSASVGDRVTITCRASEGIHDALAWYQQKPGKAPKLLIYWASTLESGVPSRFSGSGSGTDFTLTISSLQPEDFATYYCQQGDTLPYTFGGGTKVEIK
[reply] 0.0104
